Origin of measurements: patent US7713994B2

molecular target: cyclin D1/cdk 4 enzyme (Homo sapiens); construct: made in house; host or cells: Sf9 insect cells, recombinant baculovirus; test: CDK4 ELISA kinase assay (phospho-Rb ser 795 detection); type: biochemical; conditions: In Vitro Enzyme Assays, 200 μM ATP, read-out: CDK4 IC50
Outcome Measure: pIC50
By convention, pIC50 is the negative base-10 log of a molar concentration.

Take a look at these entries with their results.
O=C1NC(=O)c2ccc(I)cc2/C1=C/Nc1ccc(CN2CCCCC2CO)cc1 (centres unmarked) ... 6.07
COC1CCN(Cc2ccc(N/C=C3\C(=O)NC(=O)c4ccc(I)cc43)cc2)CC1 ... 6.68
O=C1NC(=O)c2ccc(I)cc2/C1=C/Nc1ccc(CN2CCOCC2)cc1 ... 5.68
CN(CCN1CCCC1)c1ccc(N/C=C2\C(=O)NC(=O)c3ccc(Br)cc32)cc1 ... 5.60
CCCCCCOc1ccc(CN/C=C2\C(=O)NC(=O)c3ccc(Br)cc32)cc1O ... 5.14
C[C@@H]1CN(c2cncc(N/C=C3\C(=O)NC(=O)c4ccc(-c5ccoc5)cc43)c2)C[C@H](C)N1 ... 6.74
C[C@@H]1CN(c2ccc(N/C=C3\C(=O)NC(=O)c4ccc(-c5ccsc5)cc43)cc2)C[C@H](C)N1 ... 6.80

// next entry
Entry `O=C1NC(=O)c2ccc(Br)cc2/C1=C/NCc1cc(O)c(O)c(O)c1` has what pIC50?
7.59

----------
Recorded IC50 values for a group of molecules are listed next.
biological target: cyclin E/CDK2 enzyme (Homo sapiens, UniProt P24941); construct: made in house; host or cells: Sf9 insect cells, recombinant baculovirus; test: CDK2 ELISA kinase assay (phospho-Rb ser 795 detection); format: biochemical; conditions: In Vitro Enzyme Assays, read-out: CDK2 IC50

Some solved entries appear below for comparison.
C[C@@H]1CN(c2ccc(N/C=C3\C(=O)NC(=O)c4ccc(-c5ccoc5)cc43)cc2)C[C@H](C)N1 ... > 50 µM
O=C1NC(=O)c2ccc(Cl)cc2/C1=C/Nc1ccc(CN2CCCCC2)cc1 ... > 50 µM
O=C1NC(=O)c2ccc(I)cc2/C1=C/Nc1ccc(N2CCN(Cc3ccoc3)CC2)cc1 ... 19.3 µM

Please state recorded IC50 (tested on cyclin E/CDK2 enzyme (Homo sapiens, UniProt P24941)) of `CN1CCN(c2ccc(N/C=C3\C(=O)NC(=O)c4ccc(Br)cc43)cc2)CC1`
> 50 µM

Proceed to `CC(=O)Oc1cc(CN/C=C2\C(=O)NC(=O)c3ccc(Br)cc32)cc2c1OC(C)(C)O2`
23.6 µM

`O=C1NC(=O)c2ccc(-c3ccc(CN4CCCCC4)cc3)cc2C1=CNc1ccc(CN2CCCCC2)cc1` , same question.
> 50 µM

// query: `O=C1NC(=O)c2ccc(Br)cc2/C1=C/NCCCN1CCCC1=O`
> 50 µM

Ok, now `CN1CCN(c2ccc(N/C=C3\C(=O)NC(=O)c4ccc(I)cc43)cc2F)CC1`
> 50 µM

----------
biological target: cyclin D1/cdk 4 enzyme (Homo sapiens, UniProt P11802); construct: made in house; host or cells: Sf9 insect cells, recombinant baculovirus; assay: CDK4 ELISA kinase assay (phospho-Rb ser 795 detection); assay type: biochemical; details: In Vitro Enzyme Assays, 200 μM ATP, read-out: CDK4 IC50
Sequence (P11802 whole entry, species assumed): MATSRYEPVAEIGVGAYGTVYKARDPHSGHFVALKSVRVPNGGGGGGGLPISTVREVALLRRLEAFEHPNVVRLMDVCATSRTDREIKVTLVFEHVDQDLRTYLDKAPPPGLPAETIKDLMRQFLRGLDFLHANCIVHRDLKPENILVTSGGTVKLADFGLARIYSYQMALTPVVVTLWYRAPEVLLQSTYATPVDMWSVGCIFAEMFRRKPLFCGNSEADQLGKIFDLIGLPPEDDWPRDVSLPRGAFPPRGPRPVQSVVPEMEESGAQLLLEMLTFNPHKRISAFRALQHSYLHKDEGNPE
Sequence (P24385 whole entry partner, species assumed): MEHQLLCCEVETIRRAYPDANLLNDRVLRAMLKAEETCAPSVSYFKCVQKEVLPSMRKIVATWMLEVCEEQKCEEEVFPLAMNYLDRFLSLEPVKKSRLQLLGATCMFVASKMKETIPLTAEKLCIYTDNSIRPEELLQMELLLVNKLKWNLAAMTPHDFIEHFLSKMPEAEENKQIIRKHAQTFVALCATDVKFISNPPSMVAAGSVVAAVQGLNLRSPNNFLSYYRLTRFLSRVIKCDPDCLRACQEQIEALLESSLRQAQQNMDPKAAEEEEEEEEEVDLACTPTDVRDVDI
Parameter: pIC50. Scope: all listed entries.
pIC50 is a log-scale quantity: -log10 of the concentration expressed in molar.

These recorded examples may help you get a feel for the data.
O=C(O)CCCN/C=C1\C(=O)NC(=O)c2ccc(Br)cc21 ... 5.82
O=C1NC(=O)c2ccc(I)cc2/C1=C/Nc1ccc(CN2CCCCC2)cc1 ... 6.52
COCC(C)N1CCN(c2ccc(N/C=C3\C(=O)NC(=O)c4ccc(I)cc43)cc2)CC1 (centres unmarked) ... 6.47
CCCOc1cc(CN/C=C2\C(=O)NC(=O)c3ccc(Br)cc32)cc(O)c1OCCC ... 6.11
COC[C@@H]1CCCN1Cc1ccc(N/C=C2\C(=O)NC(=O)c3ccc(I)cc32)cc1 ... 6.12

Looking for the measured pIC50 of `CCC(=O)Nc1ccc(CN/C=C2\C(=O)NC(=O)c3ccc(I)cc32)cc1O` , can you help?
7.70

# iterate: CC(c1ccc(N/C=C2\C(=O)NC(=O)c3ccc(I)cc32)cc1)N1CCCC1 (centres unmarked)
6.64

Same thing, different compound: `O=C1NC(=O)c2ccc(I)cc2/C1=C/NCc1ccc(Cl)c(O)c1`
6.70

----------
molecular target: cyclin E/CDK2 enzyme (Homo sapiens, UniProt P24941); construct: made in house; host or cells: Sf9 insect cells, recombinant baculovirus; assay: CDK2 ELISA kinase assay (phospho-Rb ser 795 detection); type: biochemical; details: In Vitro Enzyme Assays, read-out: CDK2 IC50
pIC50: −log10 of the molar value.
Outcome Measure: pIC50

Past entries and their recorded results:
CN(C)Cc1ccc(N/C=C2\C(=O)NC(=O)c3ccc(Br)cc32)cc1 ... 5.11
O=C1NC(=O)c2ccc(-c3ccoc3)cc2C1=NNc1ccc(CN2CCCCC2)cc1 ... < 4.30
CN(CCN1CCCC1)c1ccc(N/C=C2\C(=O)NC(=O)c3ccc(Br)cc32)cc1 ... < 4.30
O=C1NC(=O)c2ccc(I)cc2/C1=C/Nc1ccc(N2CCN(CC3CC3)CC2)cc1 ... < 4.30
C=CC(=O)Nc1cnc(CN/C=C2\C(=O)NC(=O)c3ccc(I)cc32)cc1O ... 6.15
CN1CCC(N(C)c2ccc(N/C=C3\C(=O)NC(=O)c4ccc(Br)cc43)cc2)C1 (centres unmarked) ... < 4.30
CN(C(=O)CN1CCCCC1)c1ccc(N/C=C2\C(=O)NC(=O)c3ccccc32)cc1 ... < 4.64

Entry `CCOC[C@@H]1CCCN1Cc1ccc(N/C=C2\C(=O)NC(=O)c3ccc(I)cc32)cc1` , system cyclin E/CDK2 enzyme (Homo sapiens, UniProt P24941): what pIC50 was measured?
< 4.30

----------
system: MCF-7; experiment: Cytotoxicity assay (SRB), MCF-7; assay type: cell-based; details: Homo sapiens, MCF7, 72 h, MCF-7 cells, SRB, three days; read-out: In Vitro Cellular Activity IC50 MCF-7
IC50 vs 5 µM: less than gives fulfilled; not less than gives not fulfilled.

Would you please look over these solved cases?
C[C@@H]1CN(c2ccc(N/C=C3\C(=O)NC(=O)c4ccc(-c5ccoc5)cc43)cc2)C[C@H](C)N1 ... fulfilled
CN(C)CCCN/C=C1\C(=O)NC(=O)c2ccc(Br)cc21 ... not fulfilled
CCC(=O)Nc1ccc(CN/C=C2\C(=O)NC(=O)c3ccc(Br)cc32)cc1 ... not fulfilled
CN1CCN(c2ccc(N/C=C3\C(=O)NC(=O)c4ccc(Br)cc43)cc2F)CC1 ... fulfilled
CN1CCN(c2ccc(N/C=C3\C(=O)NC(=O)c4ccc(F)cc43)cc2)CC1 ... fulfilled

Threshold test, IC50 < 5 µM: `CCCOc1ccc(CN/C=C2\C(=O)NC(=O)c3ccc(Br)cc32)cc1C(N)=O`
not fulfilled

Same read-out for `CO[C@@H]1CCN(Cc2ccc(N/C=C3\C(=O)NC(=O)c4ccc(I)cc43)cc2)C1` ?
fulfilled

Please answer likewise for COCC1CCCN1Cc1ccc(N/C=C2\C(=O)NC(=O)c3ccc(Br)cc32)cc1 (stereo in doubt)
not fulfilled

----------
target: cyclin D1/cdk 4 enzyme (Homo sapiens); construct: made in house; host or cells: Sf9 insect cells, recombinant baculovirus; experiment: CDK4 ELISA kinase assay (phospho-Rb ser 795 detection); type: biochemical; conditions: In Vitro Enzyme Assays, 200 μM ATP, read-out: CDK4 IC50
pIC50: −log10 of the molar value.
// FALSE strictly below 6 in pIC50; TRUE otherwise

Confirm if pIC50 reported for the compound `O=C1NC(=O)c2ccc(Br)cc2/C1=C/NCCN1CCNCC1` is 6 or above.
FALSE

And then `O=C1NC(=O)c2ccc(Br)cc2/C1=C/NCc1ccc(O)c(O)c1O` , what is it?
FALSE

Moving on to `CC(C)N1CCN(c2ccc(N/C=C3\C(=O)NC(=O)c4ccc(I)cc43)cn2)CC1`
TRUE

Another compound: `O=C1NC(=O)c2ccc(Br)cc2/C1=C/Nc1cc(F)c(N2CCN3CCC[C@H]3C2)c(F)c1`
FALSE

----------
target: cyclin D1/cdk 4 enzyme (Homo sapiens); construct: made in house; host or cells: Sf9 insect cells, recombinant baculovirus; test: CDK4 ELISA kinase assay (phospho-Rb ser 795 detection); assay type: biochemical; conditions: In Vitro Enzyme Assay, cyclin D1/cdk 4, read-out: CDK4 IC50
The following compounds are listed with their measured pIC50 values.
Interpret pIC50 as the negative base-10 log of the concentration measured in mol/L.

These recorded examples may help you get a feel for the data.
CN1CCN(c2ccc(N/C=C3\C(=O)NC(=O)c4ccc(-c5ccoc5)cc43)c(F)n2)CC1 [Example 498] ... 6.68
NS(=O)(=O)c1ccc(CNC=C2C(=O)NC(=O)c3ccc(-c4cccc(C=CC(=O)O)c4)cc32)cc1 [Example 760] ... 5.66
O=C1NC(=O)c2ccccc2C1=CNc1ccccc1OC(F)(F)F [Example 541] ... 4.43

# context switch: different compound, same pIC50
Requested read-out: pIC50. Entry: CN1CCN(c2ccc(NC=C3C(=O)NC(=O)c4ccc(-c5ccccc5F)cc43)cc2)CC1 [Example 684]
4.91
